target: T1, CPP32, bacterially expressed recombinant active enzyme (human), P42574
T1 chain: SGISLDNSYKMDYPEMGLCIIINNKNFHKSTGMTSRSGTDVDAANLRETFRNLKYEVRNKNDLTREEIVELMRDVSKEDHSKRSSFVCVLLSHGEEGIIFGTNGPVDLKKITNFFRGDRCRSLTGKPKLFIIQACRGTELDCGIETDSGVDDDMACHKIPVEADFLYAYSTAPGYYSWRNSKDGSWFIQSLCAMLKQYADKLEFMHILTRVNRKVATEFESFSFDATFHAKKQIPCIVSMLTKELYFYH
procedure.details: inhibition of hydrolysis of 10 µM DEVD-AMC, continuous fluorometric assay, bacterial lysate, 30 min preincubation
measurement.setup: remark: other sources report otherwise
No end group written: not given here.
parameter: pKi
The read-out pKi is expressed as -log10 of concentration in moles per litre.

Q. Give the measured pKi for YVAD-aldehyde [YVAD aldehyde]
A. 5.07
